Experiment: in vitro
Format: cell-based
Details: human
Measured Quantity: IC50 at 48 h

Q: So what's the measured IC50 at 48 h for this one? COc1cc(Br)cc(Br)c1Oc1cc(Br)cc(Br)c1OC [Compound 2]
Ans: > 46 µM

====

Assay: in vitro
Assay type: cell-based
Conditions: human
Method: HCT-15 and Jurkat cells were obtained from the Center for Biomedical Research, Institute of Development, Aging, and Cancer, Tohoku University (Miyagi, Japan). The cell lines were cultured in RPMI-1640 medium. The medium was supplemented with 10 % fetal bovine serum, 100 U/mL penicillin, and 100 μg/mL streptomycin. […] Cytotoxic activity was evaluated using the colorimetric MTT assay. […] The optical density of each well was measured at 570 nm using an MTP-500 microplate reader.
Measured Quantity: IC50 at 48 h

Q: Looking for the measured IC50 at 48 h of "COc1cc(Br)cc(Br)c1Oc1cc(Br)cc(Br)c1OC" , can you help?
Ans: > 46 µM

====

Target chain: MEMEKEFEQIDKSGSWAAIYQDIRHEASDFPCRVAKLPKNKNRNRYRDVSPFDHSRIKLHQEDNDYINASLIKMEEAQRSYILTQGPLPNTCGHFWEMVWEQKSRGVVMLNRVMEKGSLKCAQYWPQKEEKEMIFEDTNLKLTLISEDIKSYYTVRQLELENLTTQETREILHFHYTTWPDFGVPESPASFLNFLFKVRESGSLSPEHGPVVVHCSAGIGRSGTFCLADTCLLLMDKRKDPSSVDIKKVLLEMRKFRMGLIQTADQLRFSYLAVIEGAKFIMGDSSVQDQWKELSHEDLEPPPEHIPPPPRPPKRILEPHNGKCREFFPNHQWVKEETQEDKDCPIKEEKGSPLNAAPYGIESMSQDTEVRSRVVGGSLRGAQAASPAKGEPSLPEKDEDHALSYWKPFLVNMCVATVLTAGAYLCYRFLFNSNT
The label true is reserved for IC50 strictly under 700 nM; false covers values equal to or above it.

# example entries with known answers
COc1c(Br)cc(Br)cc1Oc1c(Br)cc(Br)cc1OC(=O)c1ccccc1 false
COc1cc(Br)cc(Br)c1Oc1cc(Br)cc(Br)c1OC false
COc1c(Br)cc(Br)cc1Oc1c(O)cc(Br)cc1Br false

Q: Item "COc1c(Br)cc(Br)cc1Oc1c(Br)cc(Br)cc1OC(C)=O" : IC50 beneath 700 nM, strictly?
Ans: true

Source: paper PMC3765847
